The reader will find reported TGI values listed item by item below.
Tested on: HOP-18 NSCLC
Assay: NCI tumour cell line growth inhibition, 48 h

C=C1C(=O)OC2/C=C(\C)CC(O)/C=C(/CO)CC(OC(=O)/C(C)=C/C)C12 (centres undefined) ... 49.7 µM
NC(=O)CCC(NC(=O)C(F)(F)F)C(=O)O (centres undefined) ... > 100 µM
CC(C)c1cccc(C(C)C)c1NC1=CC(=O)C(=O)c2ccccc21 ... > 100 µM
CS(=O)(=O)c1nc(Cl)c(Cl)c(C#N)c1Cl ... 11.5 µM
CO[C@@]12CC(=O)/C(=C(O)\C=C\c3ccccc3)C(=O)[C@]1(OC)Cc1ccccc1O2 ... > 100 µM
CCOC(=O)c1cn2c([nH]c3ccccc32)c(C#N)c1=O ... > 100 µM

Identify measured TGI obtained with HOP-18 NSCLC for OC1C2C=CCC1CCC2 (centres undefined) .
> 100 µM

State the measured TGI (HOP-18 NSCLC) of O=C(/C=C/c1ccc(Cl)c(Cl)c1)C1CCC(Cl)CC1 (centres undefined)
58.1 µM

Please tell me the measured TGI for C=C1CC(C/C=C(\C)CC2CC(=C)C(=O)O2)OC1=O (centres undefined) ; system: HOP-18 NSCLC.
> 100 µM

====

Test system: OVCAR-4 ovarian
Assay: NCI tumour cell line growth inhibition, 48 h
Outcome Measure: TGI (µM)
Quick reminder: number only, in µM, skip the unit.

O=C(CCc1cccc(O)c1)NCCc1cccc(OCc2ccccc2)c1 ... 63.6

Next up:
Name the recorded TGI of the item C=C=[CH][Sn]([c]1ccccc1)([c]1ccccc1)[c]1ccccc1 in your answer.
3.38

====

Quick reference for TGI among some molecules
Test system: HCT-116 colon
Test: NCI tumour cell line growth inhibition, 48 h
Record the value in µM, omitting the unit from your answer.

These solved cases illustrate the format of a correct answer.
COc1ccc(C(=O)c2ccc(-n3c4ccccc4c4ccc5c(c43)C(=O)C=CC5=O)cc2)cc1 ... 2.77
O=C(Nc1cc(Cl)c(Cl)cc1Cl)C(=O)C(C(=O)c1ccc2ccccc2c1)C1OC(=O)c2ccccc21 (stereo not drawn) ... 34.6
COc1ccc(/C(Cl)=C/c2ccc(Cl)c(Cl)c2)cc1 ... 80.3
COc1cccc(Nc2nccc(Nc3ccc4[nH]ncc4c3)n2)c1 ... 3.23
CC12OC3CC(O1)C1(C=O)C4CCC5(C)C(c6ccc(=O)oc6)CCC5(O)C4CCC1(C3)O2 (stereo not drawn) ... 0.399
CCCc1ccc(OCC(=O)N/N=C/c2c(-c3ccccc3)[nH]c3ccccc23)cc1 ... 27.7

Supply reported TGI belonging to this molecule: Cc1cccnc1CNC1CC(NCc2ncccc2C)CC(NCc2ncccc2C)C1 (stereo not drawn)
3.24

Answer with reported TGI of C=C1CO[C@@H]2C[C@@H]1CC/C(C)=C/CC/C(C)=C/CC[C@@]2(C)O
31.4

Give recorded TGI. CCOC(=O)c1c(C(F)(F)F)oc2c1ccc1nc3nonc3nc12
32.1

Annotate the molecule Nc1ccc(C(=O)NN2C(=O)C(Cl)C2c2cccc([N+](=O)[O-])c2)cc1 (stereo not drawn) with its measured TGI.
34.2

====

Tested on: MDA-MB-231 breast
Test: NCI tumour cell line growth inhibition, 48 h; in the data active means GI50 below about 0.43 µM; inactive means the rest
Your reply should match one of these outcome classes. active, inactive

Example entries and their recorded answers appear below.
COc1ccc(NC(=O)O[C@H]2[C@H](O[C@H]3[C@@H](O)COC(O[C@H]4C[C@H]5[C@@H]6CC=C7C[C@@H](O)CC[C@]7(C)[C@H]6CC[C@]5(C)[C@H]4[C@H](C)C(=O)CCC(C)C)[C@@H]3OC(C)=O)OC[C@@H](O)[C@@H]2O)cc1 (stereo not given in full) ... active
N#CSCC(=O)c1ccc(Cl)cc1 ... inactive
CN(C)CCOc1nc2ccccc2c2c1-c1ccc(Cl)cc1C2=O ... inactive
CCCCCc1c(C)[nH]c(/C=c2\[nH]/c(=C3/C=c4ccccc4=N3)cc2OC)c1C ... active
COc1cnc2c(c1)C(=O)c1c-2n(CCCN2CCN(CCO)CC2)c(=O)c2cc([N+](=O)[O-])ccc12 ... inactive

Could you now look at the following compound, please?
For this compound, state the assay outcome: CCCCCCC1N=C(N)N=C(N)N1c1ccc(Cl)cc1 (stereo not given)
inactive
